- Measured On: HIV-1 MGRM-C-028 envelope glycoprotein (Env) (HIV-1)
- Test Details: cell-based or functional assay
Listing of entries alongside the reported IC50 neutralization.
Field: numeric (µg/mL). Do not append units.

Binder	IC50 neutralization (µg/mL)
PGT-123 (antibody, V domains shown) VH: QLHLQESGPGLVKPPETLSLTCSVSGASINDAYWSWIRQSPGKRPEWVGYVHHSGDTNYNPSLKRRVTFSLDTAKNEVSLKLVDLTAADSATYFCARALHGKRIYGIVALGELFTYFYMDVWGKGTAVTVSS VL: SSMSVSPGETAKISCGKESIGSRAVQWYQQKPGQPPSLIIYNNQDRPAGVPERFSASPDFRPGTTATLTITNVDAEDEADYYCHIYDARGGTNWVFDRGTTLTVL	0.443
PGT-135 (antibody, V domains shown) VH: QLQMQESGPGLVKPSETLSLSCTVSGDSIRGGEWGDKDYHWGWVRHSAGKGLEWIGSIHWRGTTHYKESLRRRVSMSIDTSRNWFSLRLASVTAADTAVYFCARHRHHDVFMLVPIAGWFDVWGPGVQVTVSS VL: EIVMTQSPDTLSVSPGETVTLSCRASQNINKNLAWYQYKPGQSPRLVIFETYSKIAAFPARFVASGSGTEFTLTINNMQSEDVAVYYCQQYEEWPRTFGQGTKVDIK	2.16

Lab note: measured IC50 neutralization of PGT-126 (antibody, V domains shown) VH: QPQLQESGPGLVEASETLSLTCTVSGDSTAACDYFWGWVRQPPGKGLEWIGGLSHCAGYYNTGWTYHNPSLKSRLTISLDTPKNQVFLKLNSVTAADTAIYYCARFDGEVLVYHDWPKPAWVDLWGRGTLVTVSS VL: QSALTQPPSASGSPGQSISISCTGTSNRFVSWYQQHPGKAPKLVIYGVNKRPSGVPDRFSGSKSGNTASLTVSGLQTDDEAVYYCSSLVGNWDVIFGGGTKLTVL was 0.283

IC50 neutralization measured on PGT-125 (antibody, V domains shown) VH: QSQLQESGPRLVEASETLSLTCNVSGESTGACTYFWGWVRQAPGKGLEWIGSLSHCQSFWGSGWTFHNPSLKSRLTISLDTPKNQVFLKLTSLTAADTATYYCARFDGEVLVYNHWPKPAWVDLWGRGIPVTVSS VL: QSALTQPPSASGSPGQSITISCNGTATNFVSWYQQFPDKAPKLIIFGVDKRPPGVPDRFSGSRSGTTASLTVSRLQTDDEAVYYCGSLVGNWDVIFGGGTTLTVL = 5.78

This collection of values is drawn from patent US20200024330A1.
